Measured On: human calcium receptor (Homo sapiens)
Protocol Details: Evaluation of antagonistic action on calcium receptor using reporter gene (luciferase)
Protocol Conditions: transformed rat adrenal derived cells, 5 mM calcium chloride, culture 4 hrs, luciferase activity; read-out: Reporter gene assay (IC50, concentration showing 50% inhibitory rate)
Protocol: Evaluation of Antagonistic Action on Calcium Receptor Using Reporter Gene Luciferase cDNA and human calcium receptor cDNA were introduced into a cell strain derived from rat adrenal to transform the cells, and the transformed cells were cultured in a medium (80 μl, F12 medium containing 0.5% dialyzed horse serum and 0.25% dialyzed bovine fetal serum). […] After culture for 4 hrs, luciferase substrate was added and the luciferase activity was measured with a photoluminometer. […]
pIC50: −log10 of the molar value.
Experimental Readout: pIC50

Compound | Measured On | Observed Result
Cc1cc(-c2ccccc2[C@@H](C)OC[C@H](O)CNC(C)(C)Cc2ccc(Cl)c(F)c2)ccc1C(=O)O [Example 1-105] | human calcium receptor (Homo sapiens) | 8.05
Cc1cc(-c2ccccc2[C@@H](C)OC[C@H](O)CNC(C)(C)Cc2ccc(Cl)c(F)c2)ccc1C(=O)O [Example 1-88] | human calcium receptor (Homo sapiens) | 7.85
C[C@@H](OC[C@H](O)CNC(C)(C)Cc1ccc2ccccc2c1)c1ccccc1-c1cc2c(c(C(=O)O)c1)OCC2 | human calcium receptor (Homo sapiens) | 7.96
Cc1cc(-c2ccccc2[C@@H](C)OC[C@H](O)CNC(C)(C)Cc2cc(F)cc(Cl)c2)ccc1C(=O)O | human calcium receptor (Homo sapiens) | 7.57

A: Cc1ccc(CC(C)(C)NC[C@@H](O)CO[C@H](C)c2ccccc2Oc2ccc(C(=O)O)c(C(F)(F)F)c2)cc1F
B: C[C@@H](OC[C@H](O)CNC(C)(C)Cc1ccc(Cl)cc1F)c1ccccc1-c1ccc(C(=O)O)c(C(C)(C)C)c1
C: Cc1ccc(CC(C)(C)NC[C@@H](O)CO[C@H](C)c2ccccc2Oc2ccc(C(=O)O)cc2F)cc1F
Put the items in sequence by pIC50, from largest down. Respond with an ordered listing of the labels, as requested. C, A, B

----------
Measured On: human calcium receptor (Homo sapiens, UniProt P41180)
Protocol Details: Evaluation of antagonistic action on calcium receptor using reporter gene (luciferase)
Protocol Conditions: transformed rat adrenal derived cells, 5 mM calcium chloride, culture 4 hrs, luciferase activity; read-out: Reporter gene assay (IC50, concentration showing 50% inhibitory rate)
Description: Evaluation of Antagonistic Action on Calcium Receptor Using Reporter Gene Luciferase cDNA and human calcium receptor cDNA were introduced into a cell strain derived from rat adrenal to transform the cells, and the transformed cells were cultured in a medium (80 μl, F12 medium containing 0.5% dialyzed horse serum and 0.25% dialyzed bovine fetal serum). […] After culture for 4 hrs, luciferase substrate was added and the luciferase activity was measured with a photoluminometer. […]
pIC50: −log10 of the molar value.
Experimental Readout: pIC50

Compound | Measured On | pIC50
C[C@@H](OC[C@H](O)CNC(C)(C)Cc1ccc2ccccc2c1)c1ccccc1-c1ccc(C(=O)O)c([N+](=O)[O-])c1 [Example 1-69] | human calcium receptor (Homo sapiens, UniProt P41180) | 8.70
COc1cc(C(=O)O)ccc1-c1ccccc1[C@@H](C)OC[C@H](O)CNC(C)(C)Cc1ccc2ccccc2c1 [Example 1-27] | human calcium receptor (Homo sapiens, UniProt P41180) | 7.85
Cc1cc(-c2ccccc2[C@@H](C)OC[C@H](O)CNC(C)(C)Cc2ccc3ccccc3c2)ccc1C(=O)O [Example 1-13] | human calcium receptor (Homo sapiens, UniProt P41180) | 7.82
Cc1cc(-c2ccccc2[C@@H](C)OC[C@H](O)CNC(C)(C)Cc2cc(F)c(Cl)cc2F)ccc1C(=O)O [Example 1-25] | human calcium receptor (Homo sapiens, UniProt P41180) | 7.72
COc1ccc(CC(C)(C)NC[C@@H](O)CO[C@H](C)c2ccccc2-c2ccc(C(=O)O)c(C)c2)cc1F [Example 1-20] | human calcium receptor (Homo sapiens, UniProt P41180) | 7.40

1: Cc1ccc(CC(C)(C)NC[C@@H](O)CO[C@H](C)c2ccccc2-c2ccc(C(=O)O)c(C)c2)cc1F [Example 1-108]
2: Cc1cc(-c2ccccc2[C@@H](C)OC[C@H](O)CNC(C)(C)Cc2ccc(C)c(C(F)(F)F)c2)ccc1C(=O)O [Example 1-104]
3: Cc1ccc(CC(C)(C)NC[C@@H](O)CO[C@H](C)c2ccccc2-c2ccc(CO)c(C(=O)O)c2)cc1F [Example 1-47]
4: CC(C)c1cc(-c2ccccc2[C@@H](C)OC[C@H](O)CNC(C)(C)Cc2ccc3ccccc3c2)ccc1C(=O)O [Example 1-32]
Put the items in sequence by pIC50, from largest down. Respond with an ordered listing of the labels, as requested. 4, 1, 2, 3

----------
Measured On: human calcium receptor (Homo sapiens)
Sequence (P41180 20-1078): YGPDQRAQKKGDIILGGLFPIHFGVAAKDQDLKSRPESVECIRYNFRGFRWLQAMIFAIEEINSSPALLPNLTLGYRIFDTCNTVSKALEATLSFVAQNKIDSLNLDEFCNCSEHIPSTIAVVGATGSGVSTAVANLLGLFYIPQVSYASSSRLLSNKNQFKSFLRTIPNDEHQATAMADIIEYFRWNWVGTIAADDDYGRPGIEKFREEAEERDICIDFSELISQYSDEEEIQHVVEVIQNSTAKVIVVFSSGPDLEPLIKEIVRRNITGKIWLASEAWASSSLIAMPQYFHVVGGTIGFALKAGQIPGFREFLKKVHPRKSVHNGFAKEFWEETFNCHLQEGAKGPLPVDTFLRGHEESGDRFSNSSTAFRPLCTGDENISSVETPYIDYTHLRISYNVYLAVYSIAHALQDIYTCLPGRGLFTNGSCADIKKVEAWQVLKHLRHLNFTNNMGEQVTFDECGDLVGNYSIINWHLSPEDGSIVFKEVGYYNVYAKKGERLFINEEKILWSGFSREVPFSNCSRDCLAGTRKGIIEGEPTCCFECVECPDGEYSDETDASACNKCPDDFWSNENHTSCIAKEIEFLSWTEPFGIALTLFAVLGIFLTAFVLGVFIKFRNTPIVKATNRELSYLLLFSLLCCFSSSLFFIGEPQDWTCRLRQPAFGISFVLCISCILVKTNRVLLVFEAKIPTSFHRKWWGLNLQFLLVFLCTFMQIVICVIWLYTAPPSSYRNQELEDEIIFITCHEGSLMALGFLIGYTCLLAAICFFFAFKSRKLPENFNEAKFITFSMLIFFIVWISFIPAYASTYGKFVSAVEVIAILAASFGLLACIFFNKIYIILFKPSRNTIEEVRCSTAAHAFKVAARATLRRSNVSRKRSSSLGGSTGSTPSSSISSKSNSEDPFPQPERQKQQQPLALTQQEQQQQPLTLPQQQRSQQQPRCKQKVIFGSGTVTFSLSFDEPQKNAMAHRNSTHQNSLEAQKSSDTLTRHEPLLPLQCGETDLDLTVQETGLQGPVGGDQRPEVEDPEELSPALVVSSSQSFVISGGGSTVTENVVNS
Protocol Details: Evaluation of antagonistic action on calcium receptor using reporter gene (luciferase)
Protocol Conditions: transformed rat adrenal derived cells, 5 mM calcium chloride, culture 4 hrs, luciferase activity; read-out: Reporter gene assay (IC50, concentration showing 50% inhibitory rate)
pIC50: −log10 of the molar value.
Experimental Readout: pIC50

Examples from the recorded data:
Molecule | pIC50
CC(OC[C@H](O)CNC(C)(C)Cc1ccc2ccccc2c1)c1ccccc1S(=O)(=O)c1ccc(C(=O)O)cc1 (some centres unmarked) | 6.63
C[C@@H](OC[C@H](O)CNC(C)(C)Cc1ccc2ccccc2c1)c1ccccc1-c1ccc(C(=O)O)c(-c2ccccc2)c1 | 8.52
Cc1ccc(CC(C)(C)NC[C@@H](O)CO[C@H](C)c2ccccc2OCc2cccc(C(=O)O)c2)cc1F | 7.57

1: Cc1ccc(CC(C)(C)NC[C@@H](O)CO[C@H](C)c2ccccc2Oc2ccc(C(=O)O)cc2C(F)(F)F)cc1F
2: C[C@@H](OC[C@H](O)CNC(C)(C)Cc1ccc2ccccc2c1)c1ccccc1-c1ccc(F)c(C(=O)O)c1
Dear colleague, could you let me know whether 1 or 2 has the lower recorded pIC50? Thanks. // output: label of the selected item 2

----------
Measured On: human calcium receptor (Homo sapiens, UniProt P41180)
Construct: expressed in transfected cells; host or cells: cell strain derived from rat adrenal, co-transformed with luciferase cDNA
Sequence (P41180 20-1078): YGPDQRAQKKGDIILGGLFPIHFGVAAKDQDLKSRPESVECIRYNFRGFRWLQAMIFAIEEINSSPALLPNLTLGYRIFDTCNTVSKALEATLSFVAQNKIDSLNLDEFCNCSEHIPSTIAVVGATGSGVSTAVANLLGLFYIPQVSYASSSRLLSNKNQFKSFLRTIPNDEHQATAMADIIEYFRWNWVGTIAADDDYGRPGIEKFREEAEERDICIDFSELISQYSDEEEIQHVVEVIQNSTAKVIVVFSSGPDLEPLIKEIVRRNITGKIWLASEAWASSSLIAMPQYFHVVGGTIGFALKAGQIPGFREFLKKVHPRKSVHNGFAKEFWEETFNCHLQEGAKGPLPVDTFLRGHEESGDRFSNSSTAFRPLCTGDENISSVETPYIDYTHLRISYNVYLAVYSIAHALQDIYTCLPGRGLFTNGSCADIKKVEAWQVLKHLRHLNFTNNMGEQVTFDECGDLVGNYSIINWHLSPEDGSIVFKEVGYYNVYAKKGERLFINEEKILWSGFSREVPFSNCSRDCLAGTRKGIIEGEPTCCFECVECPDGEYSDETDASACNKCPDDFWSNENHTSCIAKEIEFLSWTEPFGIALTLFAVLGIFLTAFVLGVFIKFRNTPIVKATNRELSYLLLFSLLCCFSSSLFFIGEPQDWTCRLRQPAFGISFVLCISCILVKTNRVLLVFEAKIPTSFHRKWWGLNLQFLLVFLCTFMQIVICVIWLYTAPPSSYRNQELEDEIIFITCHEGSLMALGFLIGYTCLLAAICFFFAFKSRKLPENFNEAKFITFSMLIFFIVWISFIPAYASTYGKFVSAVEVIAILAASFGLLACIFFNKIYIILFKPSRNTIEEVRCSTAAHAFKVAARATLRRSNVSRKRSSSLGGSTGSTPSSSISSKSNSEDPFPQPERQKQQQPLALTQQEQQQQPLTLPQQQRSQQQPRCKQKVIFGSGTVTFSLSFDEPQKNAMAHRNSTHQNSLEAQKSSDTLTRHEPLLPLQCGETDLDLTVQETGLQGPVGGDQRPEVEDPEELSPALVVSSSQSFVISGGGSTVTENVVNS
Protocol Details: Evaluation of antagonistic action on calcium receptor using reporter gene (luciferase)
Type: cell-based
Protocol Conditions: transformed rat adrenal derived cells, 5 mM calcium chloride, culture 4 hrs, luciferase activity; read-out: Reporter gene assay (IC50, concentration showing 50% inhibitory rate)
pIC50: −log10 of the molar value.
Experimental Readout: pIC50

Compound | Measured On | Observed Result
CC(C)=Cc1cc(-c2ccccc2[C@@H](C)OC[C@H](O)CNC(C)(C)Cc2ccc(C)c(F)c2)ccc1C(=O)O [Example 1-48] | human calcium receptor (Homo sapiens, UniProt P41180) | 8.70
Cc1ccc(CC(C)(C)NC[C@@H](O)COC(C)c2ccccc2Oc2cccc(C(=O)O)c2)cc1F (some centres unmarked) [Example 2-8] | human calcium receptor (Homo sapiens, UniProt P41180) | 7.27
Cc1ccc(CC(C)(C)NC[C@@H](O)COC(C)c2ccccc2Oc2c(C)cc(C(=O)O)cc2C)cc1F (some centres unmarked) [Example 2-12] | human calcium receptor (Homo sapiens, UniProt P41180) | 8.30
Cc1cc(C(=O)O)cc(-c2ccccc2[C@@H](C)OC[C@H](O)CNC(C)(C)Cc2ccc(C)c(F)c2)c1 [Example 1-17] | human calcium receptor (Homo sapiens, UniProt P41180) | 7.82

A: C[C@@H](OC[C@H](O)CNC(C)(C)Cc1ccc(Cl)c(Cl)c1)c1ccccc1-c1ccc(C(=O)O)cc1F [Example 1-67]
B: Cc1ccc(CC(C)(C)NC[C@@H](O)CO[C@H](C)c2ccccc2-c2ccc(C(=O)O)c(OC(F)(F)F)c2)cc1F [Example 1-103]
C: Cc1cc(-c2ccccc2[C@@H](C)OC[C@H](O)CNC(C)(C)Cc2ccc(Cl)c(C(F)(F)F)c2)ccc1C(=O)O [Example 1-97]
D: C[C@@H](OC[C@H](O)CNC(C)(C)Cc1ccc(Cl)c(F)c1)c1ccccc1Oc1ccc(C(=O)O)cc1 [Example 2-35]
List by increasing pIC50. Respond with an ordered listing of the labels, as requested. C, A, D, B

a: Cc1ccc(CC(C)(C)NC[C@@H](O)CO[C@H](C)c2ccccc2Oc2ccc(C(=O)O)cc2)cc1F [Example 2-1]
b: Cc1c(C(=O)O)ccc(-c2ccccc2[C@@H](C)OC[C@H](O)CNC(C)(C)Cc2ccc3ccccc3c2)c1C [Example 1-37]
Compare the recorded pIC50 of a and b ; state which is larger. // output: label of the selected item b
(b: 8.52, a: 7.82)

P: CCC(C)c1cc(-c2ccccc2[C@@H](C)OC[C@H](O)CNC(C)(C)Cc2ccc(C)c(F)c2)ccc1C(=O)O (some centres unmarked) [Example 1-53]
Q: COc1cc(-c2ccccc2[C@@H](C)OC[C@H](O)CNC(C)(C)Cc2ccc(Cl)c(F)c2)ccc1C(=O)O [Example 1-82]
Compare the recorded pIC50 of P and Q ; state which is larger. // output: label of the selected item P
